test: Quantitative High-Throughput drug screen in 47 multiple myeloma cell lines against the NCATS MIPE library collection: OPM2_DSMZ cell viability assay (AID 1919872); conditions: OPM2 myeloma viability, CellTiter-Glo ATP luminescence, 48 h; series mostly up to 45.8 µM; also: nearly all actives have a fitted effect of over 30% in size
Results filed as inconclusive are left out. Active and inactive are the calls of the source. Calls follow the shape of the dose curve; as a rule, active = well fitted cell-killing curve with a large enough effect; inconclusive = small, poorly fitted or top-dose-only effect, or effect the other way; inactive = no such curve, though single readings can be large or run the other way.
Pick one and only one: 1.0 = active, 0.0 = inactive

Worked examples follow.
> print(dat)
                                   compound  group.label
1  Nc1nc(Nc2ccc(S(N)(=O)=O)cc2)nn1C(=O)c1c(F)cccc1F          1.0
2  CCOc1cc2ncc(C#N)c(Nc3ccc(F)c(Cl)c3)c2cc1NC(=O)C=CCN(C)C          1.0
3  Nc1ccccc1NC(=O)c1ccc(CNc2nccc(-c3cccnc3)n2)cc1          1.0
4  CC1COC2(CCN(c3nc(=O)c4cc(C(F)(F)F)cc([N+](=O)[O-])c4s3)CC2)O1 (configuration not stated)          0.0
5  CC(C)(C)c1cnc(CSc2cnc(NC(=O)C3CCNCC3)s2)o1          1.0
6  CC(C)c1cc(-c2n[nH]c(=O)n2-c2ccc3c(ccn3C)c2)c(O)cc1O          1.0

Check the results log: what was the call for "COc1ccc(OC)c(-c2nnc3ccc(-c4ccc(OC)c(O[C@@H]5CCOC5)c4)nn23)c1" ?
1.0

Check the results log: what was the call for "C=CC(=O)Nc1cc2c(Nc3ccc(F)c(Cl)c3)ncnc2cc1OCCCN1CCOCC1" ?
1.0

Check the results log: what was the call for "COc1cc(C(=O)N2CCC(N3CCN(C)CC3)CC2)ccc1Nc1ncc2c(n1)N(C)c1ccccc1C(=O)N2C" ?
1.0

Check the results log: what was the call for "C[C@@]12O[C@@H](C[C@]1(O)CO)n1c3ccccc3c3c4c(c5c6ccccc6n2c5c31)CNC4=O" ?
1.0

Check the results log: what was the call for "O=C(CCCCCCC(=O)Nc1ccc([C@H]2O[C@@H](CSc3nc(-c4ccccc4)c(-c4ccccc4)o3)C[C@@H](c3ccc(CO)cc3)O2)cc1)NO" ?
1.0

Check the results log: what was the call for "CC(C)(O)c1cc2nc(-c3cnc(N)nc3)nc(N3CCOCC3)c2s1" ?
1.0

Check the results log: what was the call for CC1(C)CC(=O)c2c(C(F)(F)F)nn(-c3ccc(C(N)=O)c(NC4CCC(OC(=O)CN)CC4)c3)c2C1 (configuration not stated) ?
1.0

Check the results log: what was the call for "Cn1c(=O)n(-c2ccc(C(C)(C)C#N)cc2)c2c3cc(-c4cnc5ccccc5c4)ccc3ncc21" ?
1.0

Check the results log: what was the call for "COCCn1c2c([n+](Cc3cnccn3)c1C)C(=O)c1ccccc1C2=O" ?
1.0

Check the results log: what was the call for "CC[C@@H]1C(=O)N(C)c2cnc(Nc3ccc(C(=O)NC4CCN(C)CC4)cc3OC)nc2N1C1CCCC1" ?
1.0

Check the results log: what was the call for "CNC(=O)c1ccc(-c2cnc3ncc(Cc4ccc5ncccc5c4)n3n2)cc1F" ?
0.0

Check the results log: what was the call for "NC(=O)c1cccc2cn(-c3ccc([C@@H]4CCCNC4)cc3)nc12" ?
0.0

Check the results log: what was the call for "C1=CCOCc2cc(ccc2OCCN2CCCC2)Nc2nccc(n2)-c2cccc(c2)OCC1" ?
1.0

Check the results log: what was the call for "CC(C)C[C@H](NC(=O)CNC(=O)c1cc(Cl)ccc1Cl)B(O)O" ?
1.0

Check the results log: what was the call for "CCS(=O)(=O)c1cccc(-c2cc(C(=O)NC3CCN(C)CC3)c(C)c3[nH]c4ncc(C)cc4c23)c1" ?
1.0

Check the results log: what was the call for "CC(=O)OCCN1C(=O)c2c(C)nc3ccc(S(=O)(=O)N4CCOCC4)cc3c2C1=O" ?
0.0

Check the results log: what was the call for "Cc1c(C)n(Cc2ccc(-c3ccccc3C(=O)O)cc2)c2ccc(C(=O)N[C@@H](C)c3ccc([N+](=O)[O-])cc3)cc12" ?
0.0

Check the results log: what was the call for "CCCCc1nc2cc(C=CC(=O)NO)ccc2n1CCN(CC)CC" ?
1.0
